Exercise: for every item that follows, state its recorded MIC.
Tested on: Pseudomonas aeruginosa
Assay: Antibacterial activity against Pseudomonas aeruginosa YY165 deltamexB mutant assessed as growth inhibition after 20 hrs by microdilution method
Format: functional
Conditions: YY165, 20 h
Response body: numeric value in µg/mL, unit text excluded.

// query Quick check: MIC of CCCCCCCCCCCCCCCCC(=O)N[C@@H](CCCNC(=N)N)C(=O)NCCCN[C@H](C(=O)O)[C@H](O[C@@H]1O[C@H](CN)[C@@H](O)[C@H]1O)[C@H]1O[C@@H](n2ccc(=O)[nH]c2=O)[C@H](O)[C@@H]1O ?
// result 8

// query Which MIC value belongs to CCCCCCCCCCCCCC(=O)N[C@@H](CCCNC(=N)N)C(=O)NCCCN[C@H](C(=O)O)[C@H](O[C@@H]1O[C@H](CN)[C@@H](O)[C@H]1O)[C@H]1O[C@@H](n2ccc(=O)[nH]c2=O)[C@H](O)[C@@H]1O ?
// result 16
